Exercise: state measured TGI for each of the compounds provided.
- Tested on: DU-145 prostate
- assay-overview: NCI tumour cell line growth inhibition, 48 h

The examples below pair each entry with its known result.
# compound, TGI
records = [
    ("CN(C)c1ccc(/C=c2/c3ccccc3n3c2cc(C24CC5CC(CC(C5)C2)C4)[n+]3C)cc1", "1.84 µM"),
    ("C=C(C)CN(CC#N)CC(=C)C", "> 100 µM"),
    ("COc1cccc(-c2nc3sccn3c2-c2ccnc(NCCNS(=O)(=O)c3ccccc3)c2)c1", "> 100 µM"),
]

Quick request: TGI for each listed item, please.
1. O=P([O-])(O)OP(=O)([O-])O.[NH-][C@@H]1CCCC[C@H]1[NH-].[Pt+4]
2. CCC(=O)NC(Nc1ccc(O)cc1)(C(F)(F)F)C(F)(F)F
3. Cc1cccc(C)c1NC(=S)NC=C(C(N)=O)C(N)=O
4. COc1ccc2c(c1)CCc1[nH]c3ccccc3c1CCCC2
5. NC(=N\N=C/c1cccc([N+](=O)[O-])c1)/C(N)=N\N=C/c1cccc([N+](=O)[O-])c1
6. CCCCCCCCC/C=C1\CC(CO)(COC(=O)C2CCCCC2)OC1=O (stereo not drawn)
7. O=C(O)c1ccccc1C(=O)Nn1cnnc1

Result:
1: > 100 µM; 2: > 100 µM; 3: > 100 µM; 4: > 10 µM; 5: > 100 µM; 6: 21.5 µM; 7: > 100 µM

Quick request: TGI for each listed item, please.
1. Cc1ccc(S(=O)(=O)NC2C(=O)c3ccccc3C(=O)C2n2cnc3ccccc32)cc1 (stereo not drawn)
2. OC(C/C(=N\N1CCCCC1)c1cccs1)(C(F)(F)F)C(F)(F)F
3. C=C1CC(C)(COc2ccc3ccc(=O)oc3c2)OC1=O (stereo not drawn)
4. COc1ccc(NC(C)=O)cc1C1CCC(=O)N1 (stereo not drawn)
5. COc1ccc2c(CN3CCC[C@H]3C(=O)O)cc3cc4c(cc3c2c1)OCO4
6. Cc1ccc(SCC(CF)OCn2cc(F)c(=O)[nH]c2=O)cc1 (stereo not drawn)
7. C=C[C@H]1CCC/C=C/[C@@H]2C[C@H](O)C[C@H]2[C@H](O)/C=C/C(=O)O1

Result:
["> 100 µM", "> 10 µM", "12.5 µM", "> 100 µM", "> 100 µM", "> 100 µM", "> 100 µM"]
